Origin of the recorded values: paper PMC8390754

Overview of reported IC50 across a group of compounds:
- target: YePEPT (Yersinia enterocolitica, UniProt A0A2R9TD79, F311Y/K314A)
- assay.procedure: [3H]Ala-Ala uptake competition in E. coli overexpressing the transporter; transport confirmed by SSM electrophysiology in proteoliposomes

structure.notation	IC50 / µM
CC=CC1=C(C(=O)O)N2C(=O)[C@@H](NC(=O)[C@H](N)c3ccc(O)cc3)[C@H]2SC1	32
CC1(C)S[C@@H]2[C@H](NC(=O)[C@H](N)c3ccc(O)cc3)C(=O)N2[C@H]1C(=O)O	106
CC1=C(C(=O)O)N2C(=O)[C@@H](NC(=O)[C@H](N)c3ccc(O)cc3)[C@H]2SC1	229
